Reference for the values: PubChem BioAssay (NCI)

# Test system: NCI-H460 lung
# Assay protocol: NCI tumour cell line growth inhibition, 48 h

Molecule: NCCCN(CCCCN(CCCN)Cc1ccccc1)Cc1ccccc1
TGI: 32.2 µM
--
Molecule: COc1cc2c(/C=C3\C(=O)N(C)c4ccccc43)c[nH]c2cc1C
TGI: > 37.1 µM
--
Molecule: Cc1cc(C)c(/C=C2\C(=O)Nc3ccccc32)[nH]1
TGI: > 100 µM
--
Molecule: COCN1C(=O)[C@@H]2C[C@@H](O)CN2C(=O)c2ccccc21
TGI: > 100 µM
--
Molecule: Cc1c(-c2ccccc2)c(C#N)c2nnn(-c3ccc(Cl)cc3)c(=O)n12
TGI: > 100 µM
--
Molecule: O=S(=O)(c1ccccc1)C1CC(c2nc3ccccc3[nH]2)=NO1 (stereo unspecified)
TGI: > 100 µM
--
Molecule: CCCCCCOC(=O)CC1=C(C)/C(=C/c2[nH]c(-c3ccc[nH]3)cc2OC)N=C1C
TGI: 1.39 µM
--
Molecule: Cc1n[nH]c(=O)n1C1CC1
TGI: > 100 µM
--
Molecule: Cc1ccc(NC(=O)C2C3C=CC(O3)C2C(=O)O)cc1 (stereo unspecified)
TGI: > 100 µM
--
Molecule: CCOC(=O)C(C)NC(=O)NC12CC3CC(CC(F)(C3)C1)C2 (stereo unspecified)
TGI: > 100 µM
--
Molecule: Cc1[nH]c2ncn3[nH]c(=S)nc3c2c1Cc1ccccc1
TGI: > 100 µM
--
Molecule: CCOC(=O)Cc1csc(NC(=O)C(OC(=O)c2ccc(Cl)cc2)c2ccccc2)n1 (stereo unspecified)
TGI: > 100 µM
--
Molecule: C=CC12CCCCC1CC(C(=O)OC)=C(O)C2 (stereo unspecified)
TGI: > 100 µM
--
Molecule: NC(=O)c1ncn(C2C=CC(CP(=O)(O)O)C2)c1N (stereo unspecified)
TGI: > 100 µM
--
Molecule: COc1cccc2c1C(=O)c1c(O)c3c(c(O)c1C2=O)C[C@](O)(C(=O)CO)C[C@H]3O[C@@H]1C[C@@H](NC(=O)CCCN(C)C2(c3ccc(F)cc3)CC3CCC2C3)[C@H](O)[C@@H](C)O1 (stereo partly specified)
TGI: 1.22 µM
--
Molecule: CCCCCCCCCCC/C=C(/C(=O)CCCO[Si](C)(C)C(C)(C)C)C(=O)OC
TGI: > 100 µM
--
Molecule: CCCCCN(CCCCC)CCC[C@@H](C)[C@H]1CC[C@H]2[C@@H]3[C@H](OCCCN)C[C@@H]4C[C@H](OCCCN)CC[C@]4(C)[C@H]3C[C@H](OCCCN)[C@]12C
TGI: 17.3 µM
--
Molecule: N#C/C(c1nc2ccccc2[nH]1)=c1\s/c(=C/c2ccccc2)c(=O)n1-c1ccccc1
TGI: > 100 µM
--
Molecule: Brc1ccc(-c2[nH]c3ccccc3c2/C=N\Nc2ccc(-c3nc4ccccc4[nH]3)cc2)cc1
TGI: > 51.6 µM
--
Molecule: Cc1cccc2c(N)c3cccc(C(=O)NCC[N+](C)(C)Cc4ccccc4[N+](=O)[O-])c3nc12
TGI: 16 µM
--
Molecule: CC(C)N(C(=O)C12C3C4C5C3C1(C(=O)O)C5C42)C(C)C (stereo unspecified)
TGI: > 100 µM
--
Molecule: CC(C)CC(=O)CC(C)[C@]1(CCCOCc2ccccc2)C(=O)N2CCC3(C[C@@]24CCC[C@H]41)OCCO3 (stereo partly specified)
TGI: > 10 µM
--
Molecule: COC(=O)C(Cc1nc2ccc(Cl)cc2[nH]c1=O)C(=O)C(=O)Nc1cc(C)ccc1C (stereo unspecified)
TGI: > 100 µM
--
Molecule: Cn1cnc([N+](=O)[O-])c1S(=O)(=O)Oc1ccc(Cl)cc1
TGI: > 100 µM
--
Molecule: Cc1cccc2c(=O)c3c(sc12)c(NCCCNCCO)nc1ccccc13
TGI: 2.55 µM
--
Molecule: COc1cc2c3c(n(CCCN=[N+]=[N-])c(=O)c2cc1OC)-c1ccc([N+](=O)[O-])cc1C3=O
TGI: > 100 µM
--
Molecule: COc1ccc2cc3c4cc(OC)c(OC)cc4ccn3c2c1
TGI: > 100 µM
--
Molecule: O=C(O)CCC(NC(=O)c1ccc(Oc2nc3ccccc3nc2C(=O)O)cc1)C(=O)O (stereo unspecified)
TGI: > 100 µM
--
Molecule: COc1ccc(O)c(/C=N\Nc2ccccc2)c1
TGI: > 100 µM
--
Molecule: COc1ccc(OC2(c3cc(OC)ccc3OC)OC(=O)c3ccccc32)cc1 (stereo unspecified)
TGI: > 100 µM
--
Molecule: COc1cc2c3c(n(CCCN=[N+]=[N-])c(=O)c2cc1OC)-c1ccccc1C3=O
TGI: > 100 µM
--
Molecule: CCc1cccc(C(C)C)c1NC(=O)/C(=N\NC(N)=O)C(C(=O)OC)c1cnc2ccccc2n1 (stereo unspecified)
TGI: 80.7 µM
--
Molecule: N#CC1(CCCI)CCCC1
TGI: 25.9 µM
--
Molecule: COC(=O)c1c(O)ccc2c1c1c(n2CCc2ccc(OC)c(OC)c2)C(=O)c2ccccc2C1=O
TGI: 19.5 µM
--
Molecule: COc1ccc(-c2cnc(-c3ccc(OC)cc3)n2-c2cc(OC)c(OC)c(OC)c2)cc1
TGI: > 100 µM
--
Molecule: CC1OC(n2cc(F)c(=O)[nH]c2=O)CCC1=O (stereo unspecified)
TGI: > 100 µM
--
Molecule: COc1ccc(C(=O)/C=C/c2cc(-c3ccc(OC)c(OC)c3)n[nH]2)cc1OC
TGI: 4.36 µM
--
Molecule: Fc1cc2nc3n(c2cc1F)C(c1c(F)cccc1F)SC3 (stereo unspecified)
TGI: > 100 µM
--
Molecule: N#CC(O)CCOCc1ccccc1 (stereo unspecified)
TGI: > 100 µM
--
Molecule: N#Cc1c(N)nc2c(c1-c1ccc(Cl)cc1)COc1ccc(F)cc1-2
TGI: > 100 µM
--
Molecule: O=C(O)c1cnc2c(ccc3[nH]cccc32)c1=O
TGI: > 100 µM
